# System: Rattus norvegicus
# EXPERIMENT_DESCRIPTION: Detoxification of acetaldehyde in aldehyde dehydrogenase inhibitor disuifiram/ethanol-treated rat assessed as reduction of blood acetaldehyde level at 8 mmol/kg, ip administered 1 hr prior to ethanol treatment measured after 1 hr by head space gas chromatographic analysis
Activity calls are given as the source filed them. The calls are words filed in the database; no cut-off is given here.
Classes used: true (1) = active, false (0) = inactive

- COMPOUND: "NC(CCSSCCC(N)C(=O)O)C(=O)O (racemic)"
  SYSTEM_NAME: "Rattus norvegicus"
  GROUP_LABEL: "false (0)"
- COMPOUND: "NC1CCSC1=O (racemic)"
  SYSTEM_NAME: "Rattus norvegicus"
  GROUP_LABEL: "false (0)"
- COMPOUND: "CC(=O)N[C@@H](CS)C(=O)O [ACETYLCYSTEINE]"
  SYSTEM_NAME: "Rattus norvegicus"
  GROUP_LABEL: "false (0)"
- COMPOUND: "CC(=O)NC(C(=O)O)C(C)(C)S (stereo not drawn) [N-ACETYL PENICILLAMINE]"
  SYSTEM_NAME: "Rattus norvegicus"
  GROUP_LABEL: "false (0)"
- COMPOUND: "CC(C)(S)[C@@H](N)C(=O)O [PENICILLAMINE]"
  SYSTEM_NAME: "Rattus norvegicus"
  GROUP_LABEL: "true (1)"
- COMPOUND: "N[C@@H](CS)C(=O)O (stereo in doubt)"
  SYSTEM_NAME: "Rattus norvegicus"
  GROUP_LABEL: "false (0)"
- COMPOUND: "NC(CCS)C(=O)O (racemic)"
  SYSTEM_NAME: "Rattus norvegicus"
  GROUP_LABEL: "false (0)"
- COMPOUND: "N[C@@H](CS)C(=O)O (stereo in doubt; 2)"
  SYSTEM_NAME: "Rattus norvegicus"
  GROUP_LABEL: "false (0)"
